Test system: DMS 114 small cell lung
procedure.summary: NCI tumour cell line growth inhibition, 48 h
Property: TGI; scope: individual compounds
All answers are understood in µM, so give the number only.

TGI reading for COC(=O)c1ccc(N/C=C(/C#N)c2ccsc2)cc1 : 43.8

TGI reading for O=C(c1nc2ccc(Cl)cc2[nH]c1=O)C(O)c1cccc([N+](=O)[O-])c1 (stereo not given) : 17.6

Read the next record carefully.
TGI reading for CC(C(=O)c1ccc(O)cc1)C1(O)C(=O)Nc2c(Cl)cc(Cl)cc21 (stereo not given) : 24.2

----------
Test system: COLO 205 colon
procedure.summary: NCI tumour cell line growth inhibition, 48 h
Kindly note that classification relies on TGI with these boundaries: low interval = under 3 µM, middle interval = from 3 µM up to 30 µM, high interval = 30 µM and over

Solved cases below.
### Prompt Would you mind sorting Nc1ncnc2c1N=CN(Oc1ccccc1)N2 into the appropriate category?
### Response high interval

### Prompt Would you mind sorting CCC1=C(CC2NCCc3cc(OC)c(OC)cc32)CC2c3ccccc3CCN2C1 (configuration not stated) into the appropriate category?
### Response middle interval

### Prompt Would you mind sorting COc1cc2cc[n+](C)c(Cc3ccc(Oc4cc(Cc5c6cc(OC)c(OC)cc6cc[n+]5C)ccc4OC)cc3)c2cc1OC into the appropriate category?
### Response high interval

### Prompt Would you mind sorting CC(C)C(=O)/C=C/c1ccc(Cl)cc1Cl into the appropriate category?
### Response high interval

### Prompt Would you mind sorting Cc1ccc(C2SCc3nc4ccccc4n32)cc1 (configuration not stated) into the appropriate category?
### Response middle interval

***
### Prompt Would you mind sorting Cc1nc2sc(C(=O)Nc3cccc(Cl)c3C)c(N)c2cc1C(O)c1ccccc1 (configuration not stated) into the appropriate category?
### Response low interval

### Prompt Would you mind sorting COc1ccc2c(ccc3oc([N+](=O)[O-])cc32)c1 into the appropriate category?
### Response low interval

### Prompt Would you mind sorting O=C1c2ccccc2-c2c1c1ccc3ccccc3c1n2-c1ccccc1 into the appropriate category?
### Response high interval

### Prompt Would you mind sorting COC(=O)C[C@@H]1CC=CC(=O)/C1=C(O)/C=C/c1ccccc1 into the appropriate category?
### Response low interval

### Prompt Would you mind sorting CN(C)c1cccc2c(S(=O)(=O)NCCCNCCN)cccc12 into the appropriate category?
### Response high interval

### Prompt Would you mind sorting Nc1nc(N)c2cc(S(=O)(=O)c3ccccc3)ccc2n1 into the appropriate category?
### Response high interval

### Prompt Would you mind sorting CCOC(=O)n1ccc2c(C(=O)OC)c(C(=O)OC)cc(/C(=C/C(=O)OC)C(=O)OC)c21 into the appropriate category?
### Response high interval

### Prompt Would you mind sorting C/C(=N\NC(N)=S)C(CN1CCCCC1)C(C1=C(O)c2ccccc2OC1)c1ccccc1 (configuration not stated) into the appropriate category?
### Response high interval

### Prompt Would you mind sorting COc1ccc(/C=N/NC(=O)CSc2nc(-c3ccccc3)c(-c3ccccc3)[nH]2)cc1OC into the appropriate category?
### Response high interval

### Prompt Would you mind sorting CCOc1cc(CCNC)c2c(ccc3ccc(OC)c(O)c32)c1OC into the appropriate category?
### Response high interval

### Prompt Would you mind sorting CCOC(=O)/C=C(/C(=O)OCC)n1cc(C)c(=O)[nH]c1=O into the appropriate category?
### Response middle interval
